Recorded Emax values for a group of molecules are listed next.
# Assayed system: ΔF508-CFTR (Homo sapiens, UniProt P13569, DEL508-508)
# Construct: expressed in transfected cells
# Sequence (P13569 with tags, fused parts or gaps DEL508-508): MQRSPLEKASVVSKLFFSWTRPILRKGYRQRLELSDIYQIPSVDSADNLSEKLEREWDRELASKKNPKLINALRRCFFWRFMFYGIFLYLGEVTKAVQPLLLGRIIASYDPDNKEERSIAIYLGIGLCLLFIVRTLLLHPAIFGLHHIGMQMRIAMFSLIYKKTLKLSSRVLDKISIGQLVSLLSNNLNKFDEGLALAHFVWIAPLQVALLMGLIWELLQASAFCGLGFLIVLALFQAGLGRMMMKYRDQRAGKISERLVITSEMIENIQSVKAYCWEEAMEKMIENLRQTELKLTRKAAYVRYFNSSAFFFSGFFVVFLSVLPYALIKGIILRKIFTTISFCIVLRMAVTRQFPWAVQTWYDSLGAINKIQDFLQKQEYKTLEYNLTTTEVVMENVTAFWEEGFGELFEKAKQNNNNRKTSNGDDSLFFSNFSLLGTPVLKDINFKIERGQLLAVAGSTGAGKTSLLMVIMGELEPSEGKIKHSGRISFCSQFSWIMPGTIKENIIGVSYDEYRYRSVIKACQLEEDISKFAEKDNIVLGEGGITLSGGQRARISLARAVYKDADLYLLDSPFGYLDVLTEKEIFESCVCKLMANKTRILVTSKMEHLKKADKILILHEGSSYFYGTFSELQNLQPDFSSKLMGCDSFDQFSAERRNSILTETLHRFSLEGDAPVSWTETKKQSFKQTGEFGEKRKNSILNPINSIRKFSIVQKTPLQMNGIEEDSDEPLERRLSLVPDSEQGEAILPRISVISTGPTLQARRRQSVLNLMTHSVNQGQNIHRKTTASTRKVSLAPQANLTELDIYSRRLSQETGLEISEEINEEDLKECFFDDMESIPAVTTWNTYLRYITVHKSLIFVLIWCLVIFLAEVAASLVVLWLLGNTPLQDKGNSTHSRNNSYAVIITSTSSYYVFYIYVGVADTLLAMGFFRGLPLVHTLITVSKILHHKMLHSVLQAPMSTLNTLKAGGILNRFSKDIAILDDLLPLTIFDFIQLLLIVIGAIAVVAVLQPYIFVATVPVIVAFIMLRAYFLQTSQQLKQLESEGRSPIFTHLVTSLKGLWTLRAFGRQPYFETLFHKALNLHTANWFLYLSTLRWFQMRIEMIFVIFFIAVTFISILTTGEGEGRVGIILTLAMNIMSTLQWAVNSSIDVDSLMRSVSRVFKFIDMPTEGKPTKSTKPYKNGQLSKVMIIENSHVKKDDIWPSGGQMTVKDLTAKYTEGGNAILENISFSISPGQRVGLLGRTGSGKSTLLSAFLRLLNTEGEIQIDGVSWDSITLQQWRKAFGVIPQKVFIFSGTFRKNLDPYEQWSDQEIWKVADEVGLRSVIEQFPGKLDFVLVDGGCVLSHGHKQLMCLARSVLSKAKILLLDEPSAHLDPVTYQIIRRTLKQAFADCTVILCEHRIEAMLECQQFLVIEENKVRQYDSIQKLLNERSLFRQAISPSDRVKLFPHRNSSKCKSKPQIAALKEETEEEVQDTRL
# Measurement protocol: Membrane potential optical (FRET/VIPR) assay, identification of correction compounds
# Format: cell-based
# Condition description: Table 3; assay not given; read-out: % Activity / % Efficacy (relative efficacy)

Solved cases below.
COc1ccccc1C(c1cnc(NC(=O)C2(c3ccc4c(c3)OCO4)CC2)s1)N1CCOCC1 (centres unmarked)	> 100%
CN(C)C(c1ccccc1)c1cnc(NC(=O)C2(c3ccc4c(c3)OCO4)CC2)s1 (centres unmarked)	> 100%
COc1ccccc1C(c1cnc(NC(=O)C2(c3ccc4c(c3)OCO4)CC2)s1)N1CCCCC1 (centres unmarked)	> 100%
O=C(Nc1ncc(C(NC2CCCCC2)c2ccccc2Cl)s1)C1(c2ccc3c(c2)OCO3)CC1 (centres unmarked)	> 100%
O=C(Nc1ncc(C(c2ccccc2Cl)N2CC[C@@H](O)C2)s1)C1(c2ccccc2Cl)CC1 (some centres unmarked)	> 100%
O=C(Nc1ncc(C(c2cc(F)ccc2F)N2CC[C@@H](O)C2)s1)C1(c2ccc3c(c2)OCO3)CC1 (some centres unmarked)	> 100%

Lab book: Emax of CCOc1ccccc1C(NC(CO)C(C)C)c1cnc(NC(=O)C2(c3ccc4c(c3)OCO4)CC2)s1 (centres unmarked) noted as > 100%

Lab book: Emax of CC(C)(C)C(c1cnc(NC(=O)C2(c3ccc4c(c3)OCO4)CC2)s1)N1CCOCC1 (centres unmarked) noted as > 100%

###

# Assayed system: ΔF508-CFTR (Homo sapiens, UniProt P13569, DEL508-508)
# Measurement protocol: Membrane potential optical (FRET/VIPR) assay, identification of correction compounds
# Condition description: Table 3; assay not given
Assay endpoint: EC50

C=CCN(C)C(c1cnc(NC(=O)C2(c3ccc4c(c3)OCO4)CC2)s1)c1ccccc1Cl (stereo not shown) [Example 218]	< 10 µM

Given the compound COCCNC(c1cnc(NC(=O)C2(c3ccc4c(c3)OCO4)CC2)s1)c1ccccc1Cl (stereo not shown) [Example 439] and test system ΔF508-CFTR (Homo sapiens, UniProt P13569, DEL508-508), the measured EC50 is < 10 µM

Given the compound CCC(c1cnc(NC(=O)C2(c3ccc4c(c3)OCO4)CC2)s1)N1CCC[C@H]1COC (stereo partly shown) [Example 404] and test system ΔF508-CFTR (Homo sapiens, UniProt P13569, DEL508-508), the measured EC50 is 10 to 25 µM

Given the compound O=C(Nc1ncc(Sc2ccccc2)s1)C1(c2ccc3c(c2)OCO3)CC1 [Example 105] and test system ΔF508-CFTR (Homo sapiens, UniProt P13569, DEL508-508), the measured EC50 is < 10 µM

###

Recorded Emax values for a group of compounds are listed next.
# Assayed system: ΔF508-CFTR (Homo sapiens, UniProt P13569, DEL508-508)
# Construct: expressed in transfected cells
# Measurement protocol: Membrane potential optical (FRET/VIPR) assay, identification of correction compounds
# Assay type: cell-based
# Condition description: Table 3; assay not given; read-out: % Activity / % Efficacy (relative efficacy)

Solved cases below.
O=C(Nc1ncc(C(NC[C@@H]2CCCO2)c2ccccc2Cl)s1)C1(c2ccc3c(c2)OCO3)CC1 (stereo partly shown) [Example 434]	> 100%
CC(C)[C@H](CO)NC(c1cnc(NC(=O)C2(c3ccc4c(c3)OCO4)CC2)s1)c1ccccc1Cl (stereo partly shown) [Example 440]	> 100%
O=C(Nc1cnc(Cc2ccccc2Cl)s1)C1(c2ccc3c(c2)OCO3)CC1 [Example 267]	> 100%

Lab book: Emax of O=C(Nc1ncc(C(c2ccccc2Cl)N2CC[C@@H](O)C2)s1)C1(c2ccc3c(c2)OC(F)(F)O3)CC1 (stereo partly shown) [Example 492] noted as > 100%

Lab book: Emax of CCOCCCNC(c1cnc(NC(=O)C2(c3ccc4c(c3)OCO4)CC2)s1)c1ccccc1Cl (stereo not shown) [Example 425] noted as 25 to 100%

Lab book: Emax of CS(=O)(=O)c1ccc(C(c2cnc(NC(=O)C3(c4ccc5c(c4)OCO5)CC3)s2)N2CCCC2)cc1 (stereo not shown) [Example 385] noted as > 100%

Lab book: Emax of C/C=C/c1cnc(NC(=O)C2(c3ccc4c(c3)OCO4)CC2)s1 [Example 386] noted as > 100%

Lab book: Emax of Cc1ccc(C2(C(=O)Nc3ncc(C(c4ccccc4Cl)N4CC[C@@H](O)C4)s3)CC2)cc1 (stereo partly shown) [Example 422] noted as > 100%

Lab book: Emax of CS(=O)(=O)Nc1cccc(C2(C(=O)Nc3ncc(Cc4ccccc4Cl)s3)CC2)c1 [Example 308] noted as 25 to 100%

Lab book: Emax of CC(C)[C@H](CO)NC(c1cnc(NC(=O)C2(c3ccc4c(c3)OCO4)CC2)s1)c1cc(F)ccc1F (stereo partly shown) [Example 484] noted as > 100%

Lab book: Emax of Cc1ccccc1C1(C(=O)Nc2ncc(C(c3ccccc3Cl)N3CC[C@@H](O)C3)s2)CC1 (stereo partly shown) [Example 444] noted as > 100%

Lab book: Emax of O=C(Nc1ncc(C(c2ccccc2C(F)(F)F)N2CCCC2)s1)C1(c2ccc3c(c2)OCO3)CC1 (stereo not shown) [Example 468] noted as > 100%

Lab book: Emax of COCC1CCCN1C(c1cnc(NC(=O)C2(c3ccc4c(c3)OCO4)CC2)s1)c1ccccc1OC (stereo not shown) [Example 358] noted as > 100%

Lab book: Emax of O=C(Nc1ncc(Cc2ccccc2Cl)s1)C1(c2ccc(O)cc2)CC1 [Example 317] noted as 25 to 100%

Lab book: Emax of O=C(Nc1ncc(Cc2ccccc2Cl)s1)C1(c2cccc(O)c2)CC1 [Example 316] noted as 25 to 100%

Lab book: Emax of COc1ccc(C2(C(=O)Nc3nc(-c4ccccc4OC)cs3)CC2)cc1 [Example 121] noted as > 100%

###

Recorded EC50 values for a group of molecules are listed next.
# Assayed system: ΔF508-CFTR (Homo sapiens, UniProt P13569, DEL508-508)
# Measurement protocol: Membrane potential optical (FRET/VIPR) assay, identification of correction compounds
# Condition description: Table 3; assay not given

Lab book: EC50 of COc1ccc(C2(C(=O)Nc3ncc(Cc4ccc(F)cc4F)s3)CC2)cc1 noted as < 10 µM

Lab book: EC50 of O=C(Nc1ncc(C(c2ccccc2Cl)N2CC[C@@H](O)C2)s1)C1(c2ccccc2)CC1 (some centres unmarked) noted as < 10 µM

Lab book: EC50 of O=C(Nc1ncc(C(NC2CCCC2)c2ccccc2Cl)s1)C1(c2ccc3c(c2)OCO3)CC1 (centres unmarked) noted as < 10 µM

Lab book: EC50 of CN1CCCC1CCNC(c1cnc(NC(=O)C2(c3ccc4c(c3)OCO4)CC2)s1)c1ccccc1Cl (centres unmarked) noted as < 10 µM

Lab book: EC50 of O=C(Nc1ncc(C(NCC2CCCCC2)c2ccccc2Cl)s1)C1(c2ccc3c(c2)OCO3)CC1 (centres unmarked) noted as < 10 µM

Lab book: EC50 of O=C(Nc1ncc(CN2CC[C@@H](O)C2)s1)C1(c2ccc3c(c2)OCO3)CC1 noted as 10 to 25 µM

Lab book: EC50 of CCC(c1cnc(NC(=O)C2(c3ccc4c(c3)OCO4)CC2)s1)N1CCCCC1 (centres unmarked) noted as 10 to 25 µM

Lab book: EC50 of Nc1ccc(Sc2cnc(NC(=O)C3(c4ccc5c(c4)OCO5)CC3)s2)cc1 noted as < 10 µM

Lab book: EC50 of COc1nonc1NC(=O)C1(c2ccc3c(c2)OCO3)CC1 noted as 10 to 25 µM

Lab book: EC50 of CCOc1ccccc1C(c1cnc(NC(=O)C2(c3ccc4c(c3)OCO4)CC2)s1)N1CC[C@@H](O)C1 (some centres unmarked) noted as < 10 µM

Lab book: EC50 of CCN(CC)c1ccc(-c2csc(NC(=O)C3(c4ccc5c(c4)OCO5)CC3)n2)cc1 noted as < 10 µM

Lab book: EC50 of O=C(Nc1ncc(C2(c3ccccc3)CCCC2)s1)C1(c2ccc3c(c2)OCO3)CC1 noted as < 10 µM

Lab book: EC50 of COc1ccc(C2(C(=O)Nc3ncc(C4(c5ccccc5OC)CC4)s3)CC2)cc1 noted as < 10 µM

Lab book: EC50 of CCOC(=O)c1sc(NC(=O)C2(c3ccc4c(c3)OCO4)CC2)nc1C(C)C noted as < 10 µM

###

Recorded Emax values for a group of compounds are listed next.
# Assayed system: ΔF508-CFTR (Homo sapiens, UniProt P13569, DEL508-508)
# Construct: expressed in transfected cells
# Measurement protocol: Membrane potential optical (FRET/VIPR) assay, identification of correction compounds
# Format: cell-based
# Condition description: Table 3; assay not given; read-out: % Activity / % Efficacy (relative efficacy)

CCC(c1cnc(NC(=O)C2(c3ccc4c(c3)OCO4)CC2)s1)N1CCOCC1 (stereo not shown)	25 to 100%

Lab book: Emax of COc1cccc(C2(C(=O)Nc3ncc(C(c4ccccc4Cl)N4CC[C@@H](O)C4)s3)CC2)c1 (stereo partly shown) noted as > 100%

Lab book: Emax of O=C(Nc1nn(-c2ccccc2)cc1-c1cccs1)C1(c2ccc3c(c2)OCO3)CC1 noted as 25 to 100%

Lab book: Emax of O=C(Nc1ncc(Cc2ccccc2Cl)s1)C1(c2ccc(-n3cncn3)cc2)CC1 noted as > 100%

These measurements were taken from patent US7977322B2.
